- Test system: A2780 cells
- assay_name: Cell Viability Assay (ATPlite 1step), A2780
- Format: cell-based
- reported_conditions: Homo sapiens; A2780, 4 uM compound, 72 hours; read-out: Cell Viability % inhibition A2780 (4 uM Cpd)
Reported percent inhibition of cell viability at 4 µM values for the following compounds.
I only need the number, in %, no unit after it.

Worked set:
>  <smiles>
Cc1ncc(C(=O)Nc2ccc(-c3ccsc3)cn2)cn1

>  <measured>
86.5

$$$$
>  <smiles>
O=C(Nc1ccc(-c2cccc(C3CCC3)c2)cn1)c1cncnc1

>  <measured>
87.6

$$$$
>  <smiles>
Cc1ncc(C(=O)Nc2ccc(-c3cc(C4CC4)cc(N4CCN(C)CC4)c3)cn2)cn1

>  <measured>
15.1

$$$$
>  <smiles>
O=C(Nc1ccc(-c2ccsc2)cn1)c1cncnc1

>  <measured>
81.3

$$$$
>  <smiles>
O=C(Nc1ccc(-c2ccccn2)cn1)c1cncnc1

>  <measured>
68.8

$$$$

Query :: Let me know recorded percent inhibition of cell viability at 4 µM for `NCCNc1ncc(C(=O)Nc2ccc(-c3cccc(C4CC4)c3)cn2)cn1` , thanks.
Result :: 88

Query :: Respond only with percent inhibition of cell viability at 4 µM recorded for `Cc1ncc(C(=O)Nc2ccc(-c3cc(NC4CC4)cc(N4CCN(C)CC4)c3)cn2)cn1`
Result :: 6.8

Query :: Give percent inhibition of cell viability at 4 µM for `Cc1ncc(C(=O)Nc2ccc(-c3cc(N4CCN(C)CC4)cc(S(=O)(=O)C4CC4)c3)c(C)n2)cn1`
Result :: 7.3

Query :: Name the recorded percent inhibition of cell viability at 4 µM of the item `Cc1ncc(C(=O)Nc2ccc(-c3cc(Cl)cc(N4CCN(C)CC4)c3)cn2)cn1` in your answer.
Result :: 88.7

###

- System: PC3 cells
- assay_name: Cell Viability Assay (ATPlite 1step), PC3
- Format: cell-based
- reported_conditions: Homo sapiens, PC-3; PC3, 20 uM compound, 72 hours; read-out: Cell Viability % inhibition PC3 (20 uM Cpd)
Could you mark each record YES if its percent inhibition of cell viability at 20 µM falls strictly under 80%, and NO if it equals or exceeds it?

Use these answered entries as a reference point.
>  <smiles>
NCCNc1ncc(C(=O)Nc2ccc(-c3cccc(C4CC4)c3)cn2)cn1

>  <answer_label>
NO

$$$$
>  <smiles>
O=C(Nc1ccc(-c2ccsc2)cn1)c1cncnc1

>  <answer_label>
YES

$$$$
>  <smiles>
Cc1ccc(C(=O)Nc2ccc(-c3cccc(C4COC4)c3)cn2)cn1

>  <answer_label>
NO

$$$$

Query :: Problem: For the compound `Cc1ncc(C(=O)Nc2ccc(-c3cccc(NC4CC4)c3)cn2)cn1` , is percent inhibition of cell viability at 20 µM under 80%?
Result :: YES

Query :: In plain terms, does `O=C(Nc1ccc(-c2cccc(Cl)c2)cn1)c1cncnc1` come in under 80% for percent inhibition of cell viability at 20 µM?
Result :: YES

Query :: Item `Nc1ncc(C(=O)Nc2ccc(-c3ccccc3)cn2)cn1` : percent inhibition of cell viability at 20 µM beneath 80%, strictly?
Result :: YES

Query :: Record `O=C(Nc1ccc(-c2cccc(C3CCC3)c2)cn1)c1cncnc1` : is its percent inhibition of cell viability at 20 µM strictly below 80%?
Result :: NO

Query :: Hello, I'm reviewing records and need to know if percent inhibition of cell viability at 20 µM of `Cc1ncc(C(=O)Nc2ccc(-c3ccccc3)cn2)cn1` is below 80%. Could you check?
Result :: YES

Query :: Say whether its percent inhibition of cell viability at 20 µM is strictly beneath 80%. Entry: `O=C(Nc1ccc(-c2ccncc2)cn1)c1cncnc1`
Result :: YES

Query :: # strict comparison: is reported percent inhibition of cell viability at 20 µM < 80%? input = `O=C(Nc1ccc(-c2cccc(-c3ccccc3)c2)cn1)c1cncnc1`
Result :: YES

Query :: Below 80% on percent inhibition of cell viability at 20 µM? Entry `Cc1ccc(C(=O)Nc2ccc(-c3cccc(NC4CC4)c3)cn2)cn1`
Result :: YES

Query :: Is the reported percent inhibition of cell viability at 20 µM for `O=C(Nc1ccc(-c2cccs2)cn1)c1cccnc1` strictly below 80%?
Result :: NO

Query :: Hello, is percent inhibition of cell viability at 20 µM of the following compound strictly smaller than 80%? `Cc1ncc(C(=O)Nc2ccc(-c3cc(N4CCN(C)CC4)cc(S(=O)(=O)C4CC4)c3)cn2)cn1`
Result :: YES

Query :: Lab note: percent inhibition of cell viability at 20 µM threshold 80%. Does this compound come in strictly under it? `Cc1ncc(C(=O)Nc2ccc(-c3cccc(C4CC4)c3)cn2)cn1`
Result :: YES

Query :: Determine if `COc1ncc(C(=O)Nc2ccc(-c3cccc(C4CC4)c3)cn2)cn1` shows percent inhibition of cell viability at 20 µM strictly lower than 80%.
Result :: NO

Query :: Here's an entry: `O=C(Nc1ccc(-c2cccc(NC3CC3)c2)cn1)c1cncnc1` . Is its percent inhibition of cell viability at 20 µM below 80%?
Result :: YES

Query :: Dear colleague, could you confirm whether percent inhibition of cell viability at 20 µM of `O=C(Nc1ccc(-c2ccoc2)cn1)c1cncnc1` falls below 80%? Thanks.
Result :: YES

Query :: Does the reported percent inhibition of cell viability at 20 µM of the following compound sit strictly below 80%? `O=C(Nc1ccc(-c2cccc(OC3CC3)c2)cn1)c1cncnc1`
Result :: YES

Query :: Criterion: percent inhibition of cell viability at 20 µM strictly below 80%. Is it met by `Cc1ncc(C(=O)Nc2ccc(-c3cccc(S(=O)(=O)C4CC4)c3)c(C)n2)cn1` ?
Result :: YES

Query :: Is it true that percent inhibition of cell viability at 20 µM reported for `CC(C)(C)c1cccc(-c2ccc(NC(=O)c3cncnc3)nc2)c1` is less than 80%?
Result :: YES

Query :: Report whether reported percent inhibition of cell viability at 20 µM is lower than 80% (strictly) for `O=C(Nc1ccc(-c2ccco2)cn1)c1cncnc1`
Result :: YES

Query :: Confirm or reject: percent inhibition of cell viability at 20 µM of `Cc1ccc(C(=O)Nc2ccc(-c3cccc(OC4CC4)c3)cn2)cn1` lies strictly below 80%
Result :: YES
